system: MDA-MB-435 melanoma; assay: NCI-60 one-dose screen, 48 h (100 = growth as untreated, 0 = no growth, -100 = all killed); conditions: 10 µM unless noted
This is part of a sample that, as a whole, favours compounds with a hit. Of some 83,000 tested, about 20% had one in any assay.
Assign labels as follows, please: yes for growth below 70%; no for growth equal to or exceeding 70%.

Some solved cases for reference:
[[record]]
molecule = "CCOC(=O)CCN(CCC(=O)OCC)c1ccccc1"
category_label = "no"

[[record]]
molecule = "C=CCOc1ccc2c(C)cc(=O)oc2c1"
category_label = "no"

[[record]]
molecule = "C[C@H](NC(=O)c1snnc1C1CC1)c1c(F)cccc1Cl"
category_label = "no"


Is growth of Cc1c(C(=O)CCl)c(=O)n(-c2ccccc2)n1C strictly below 70%?
yes

Is growth of CN(C)c1nc(-c2ccco2)n2nc(-c3ccc(Cl)cc3)cc2n1 strictly below 70%?
no

Is growth of c1ccc(CCn2cccc2)nc1 strictly below 70%?
no

Is growth of Cc1ccncc1NC=O strictly below 70%?
no

Is growth of COc1cccc(C2C(C#N)=C(N)Oc3cc4c(cc32)OCO4)c1 (configuration not stated) strictly below 70%?
yes

Is growth of Cc1c(C(=O)Nc2ccccc2F)sc2c(=O)[nH]cnc12 strictly below 70%?
yes

Is growth of CCN(CC)CCCC(C)Nc1c(-c2ccccc2)cnc2cc(Cl)ccc12 (configuration not stated) strictly below 70%?
yes

Is growth of COc1cc(C2CC(c3ccccc3)=NN2C=O)ccc1Oc1ccnc2cc(Cl)ccc12 (configuration not stated) strictly below 70%?
yes
